Tested on: MDA-MB-436 (Breast Carcinoma)
Test: Bliss excess, mean over the matrix (fraction); higher = more synergy
Measured quantity: Bliss excess

Sample answers from the record:
Compound	Measured
CN(CCO)CC[C@H](CSc1ccccc1)Nc1ccc(S(=O)(=O)NC(=O)c2ccc(N3CCC([C@@H](O)c4ccccc4-c4ccc(Cl)cc4)CC3)cc2)cc1S(=O)(=O)C(F)(F)F [AZD4320] + C1CN(CCC1(C(=O)N[C@@H](CCO)C2=CC=C(C=C2)Cl)N)C3=NC=NC4=C3C=CN4 [Capivasertib] (first compound max 1 µM, 7x7, partner max 3 µM)	-0.0329
COc1cccc(OCCCN)c1-c1cc(Nc2cnc(C#N)cn2)n[nH]1 [Prexasertib] + CN(C)CCCOc1ccc(-c2ccc3ncc4c(c3c2)n(C2CCOCC2)c(=O)n4C)cn1 [AZD0156] (first compound max 1 µM, 7x7, partner max 1 µM)	-0.0428
N#Cc1cnc(Nc2cc(NC[C@H]3CNCCO3)c(C(F)(F)F)cn2)cn1 [SRA737] + C=CCn1c(=O)c2cnc(Nc3ccc(N4CCN(C)CC4)cc3)nc2n1-c1cccc(C(C)(C)O)n1 [AZD1775] (first compound max 10 µM, partner max 1 µM)	-0.0132
CC1(C)CCC(CN2CCN(c3ccc(C(=O)NS(=O)(=O)c4ccc(NCC5CCOCC5)c([N+](=O)[O-])c4)c(Oc4cnc5[nH]ccc5c4)c3)CC2)=C(c2ccc(Cl)cc2)C1 [Venetoclax] + CN(C)CCCOc1ccc(-c2ccc3ncc4c(c3c2)n(C2CCOCC2)c(=O)n4C)cn1 [AZD0156] (first compound max 1 µM, 7x7, partner max 1 µM)	-0.0319
CN(CCO)CC[C@H](CSc1ccccc1)Nc1ccc(S(=O)(=O)NC(=O)c2ccc(N3CCC([C@@H](O)c4ccccc4-c4ccc(Cl)cc4)CC3)cc2)cc1S(=O)(=O)C(F)(F)F [AZD4320] + CS(=O)(=O)CCNCc1ccc(-c2ccc3ncnc(Nc4ccc(OCc5cccc(F)c5)c(Cl)c4)c3c2)o1 [Lapatinib] (first compound max 1 µM, 7x7, partner max 10 µM)	-0.0333
CS(=O)(=O)CCNCc1ccc(-c2ccc3ncnc(Nc4ccc(OCc5cccc(F)c5)c(Cl)c4)c3c2)o1 [Lapatinib] + C[C@@H](Oc1cc(-c2cnn(C3CCNCC3)c2)cnc1N)c1c(Cl)ccc(F)c1Cl [Crizotinib] (first compound max 10 µM, 7x7, partner max 10 µM)	-0.0237
CCc1c2c(nc3ccc(O)cc13)-c1cc3c(c(=O)n1C2)COC(=O)[C@]3(O)CC [SN-38] + CN(C)CCCOc1ccc(-c2ccc3ncc4c(c3c2)n(C2CCOCC2)c(=O)n4C)cn1 [AZD0156] (first compound max 0.3 µM, 7x7, partner max 1 µM)	0.0033
N#Cc1cnc(Nc2cc(NC[C@H]3CNCCO3)c(C(F)(F)F)cn2)cn1 [SRA737] + Nc1ccn([C@@H]2O[C@H](CO)[C@@H](O)C2(F)F)c(=O)n1 [Gemcitabine] (first compound max 10 µM, 7x7, partner max 0.3 µM)	-0.0067

Answer with the recorded Bliss excess of C[C@@H]1COCCN1c1cc(C2([S@](C)(=N)=O)CC2)nc(-c2ccnc3[nH]ccc23)n1 [AZD6738] + O=C(c1cc(Cc2n[nH]c(=O)c3ccccc23)ccc1F)N1CCN(C(=O)C2CC2)CC1 [Olaparib] (first compound max 10 µM, 7x7, partner max 10 µM) only. -0.0176

Answer with the recorded Bliss excess of Cc1c2c(nn1C)CSCc1cc(n(C)n1)CSc1cc(c3ccccc3c1)OCCCc1c(C(=O)O)n(C)c3c-2c(Cl)ccc13 [AZD5991] + CN(C)CCCOc1ccc(-c2ccc3ncc4c(c3c2)n(C2CCOCC2)c(=O)n4C)cn1 [AZD0156] (first compound max 1 µM, 7x7, partner max 1 µM) only. -0.0369

Answer with the recorded Bliss excess of CC(=O)c1c(C)c2cnc(Nc3ccc(N4CCNCC4)cn3)nc2n(C2CCCC2)c1=O [Palbociclib] + Cc1c2c(nn1C)CSCc1cc(n(C)n1)CSc1cc(c3ccccc3c1)OCCCc1c(C(=O)O)n(C)c3c-2c(Cl)ccc13 [AZD5991] (first compound max 10 µM, 7x7, partner max 1 µM) only. -0.0243

Answer with the recorded Bliss excess of N#Cc1cnc(Nc2cc(NC[C@H]3CNCCO3)c(C(F)(F)F)cn2)cn1 [SRA737] + CCc1c2c(nc3ccc(O)cc13)-c1cc3c(c(=O)n1C2)COC(=O)[C@]3(O)CC [SN-38] (first compound max 10 µM, 7x7, partner max 0.3 µM) only. -0.031

Answer with the recorded Bliss excess of N#Cc1cnc(Nc2cc(NC[C@H]3CNCCO3)c(C(F)(F)F)cn2)cn1 [SRA737] + O=c1[nH]cc(F)c(=O)[nH]1 [5-Fluorouracil] (first compound max 10 µM, 7x7, partner max 20 µM) only. 0.0202

Answer with the recorded Bliss excess of CN(C)CCCOc1ccc(-c2ccc3ncc4c(c3c2)n(C2CCOCC2)c(=O)n4C)cn1 [AZD0156] + O=C(c1cc(Cc2n[nH]c(=O)c3ccccc23)ccc1F)N1CCN(C(=O)C2CC2)CC1 [Olaparib] (first compound max 3 µM, partner max 3 µM) only. -0.0232

* * *

Tested on: EW-16 (Ewing's Sarcoma)
Test: Bliss excess, mean over the matrix (fraction); higher = more synergy
Measured quantity: Bliss excess
Answer using only a numeral; do not append any unit.

Sample answers from the record:
Compound	Bliss excess
Cc1cc2ncnn2cc1Nc1ncc2c(n1)n(C1CCOCC1)c(=O)n2C [AZD7648] + C[C@@H]1COCCN1C2=NC(=NC(=C2)C3(CC3)[S@](=N)(=O)C)C4=C5C=CNC5=NC=C4 [AZD6738] (first compound max 10 µM, 7x7, partner max 10 µM)	0.0269
NC1(C(=O)N[C@@H](CCO)c2ccc(Cl)cc2)CCN(c2ncnc3[nH]ccc23)CC1 [Capivasertib] + Cn1cnc2c(F)c(Nc3ccc(Br)cc3Cl)c(C(=O)NOCCO)cc21 [Selumetinib] (first compound max 10 µM, 7x7, partner max 10 µM)	0.0097
NC1(C(=O)N[C@@H](CCO)c2ccc(Cl)cc2)CCN(c2ncnc3[nH]ccc23)CC1 [Capivasertib] + CC(C)n1c(=O)n(C)c2cnc3cc(F)c(-c4ccc(OCCCN5CCCCC5)nc4)cc3c21 [AZD1390] (first compound max 10 µM, 7x7, partner max 0.3 µM)	-0.079

Recall the reported Bliss excess of C[C@@H](c1ccc2nccn2c1)n1nnc2ncc(-c3cnn(C)c3)nc21 [Savolitinib] + CN(CC[C@H](CSC1=CC=CC=C1)NC2=C(C=C(C=C2)S(=O)(=O)NC(=O)C3=CC=C(C=C3)N4CCC(CC4)[C@H](C5=CC=CC=C5C6=CC=C(C=C6)Cl)O)S(=O)(=O)C(F)(F)F)CCO [AZD4320] (first compound max 1 µM, 7x7, partner max 1 µM) when tested on EW-16 (Ewing's Sarcoma). -0.0994

Recall the reported Bliss excess of Cc1c2c(nn1C)CSCc1cc(n(C)n1)CSc1cc(c3ccccc3c1)OCCCc1c(C(=O)O)n(C)c3c-2c(Cl)ccc13 [AZD5991] + C[C@@H]1COCCN1C2=NC(=NC(=C2)C3(CC3)[S@](=N)(=O)C)C4=C5C=CNC5=NC=C4 [AZD6738] (first compound max 1 µM, 7x7, partner max 10 µM) when tested on EW-16 (Ewing's Sarcoma). -0.0304

Recall the reported Bliss excess of C[C@@H]1COCCN1c1cc(C2([S@](C)(=N)=O)CC2)nc(-c2ccnc3[nH]ccc23)n1 [AZD6738] + O=C(c1cc(Cc2n[nH]c(=O)c3ccccc23)ccc1F)N1CCN(C(=O)C2CC2)CC1 [Olaparib] (first compound max 10 µM, 7x7, partner max 10 µM) when tested on EW-16 (Ewing's Sarcoma). 0.0402

Recall the reported Bliss excess of NC1(C(=O)N[C@@H](CCO)c2ccc(Cl)cc2)CCN(c2ncnc3[nH]ccc23)CC1 [Capivasertib] + CC(=O)c1c(C)c2cnc(Nc3ccc(N4CCNCC4)cn3)nc2n(C2CCCC2)c1=O [Palbociclib] (first compound max 10 µM, 7x7, partner max 10 µM) when tested on EW-16 (Ewing's Sarcoma). 0.0029

* * *

Test system: UACC-812 (Breast Carcinoma)
Test: combination Emax (second highest fraction inhibited in the dose matrix, 72 h); higher = more inhibition; extreme values may be limits of the assay
Listed here: items and their measured combination Emax.

Molecule	Measured quantity	Measured
CCN(CCO)CCCOc1ccc2c(Nc3cc(CC(=O)Nc4cccc(F)c4)[nH]n3)ncnc2c1 [AZD2811] + O=C(c1cc(Cc2n[nH]c(=O)c3ccccc23)ccc1F)N1CCN(C(=O)C2CC2)CC1 [Olaparib] (first compound max 1 µM, 7x7, partner max 10 µM)	combination Emax	0.181
COc1nnc2ccc(N3CCC(c4ccc(OCCN5CCN(C)C(=O)[C@H]5C)cc4)CC3)nn12 [AZD5153] + C=CCn1c(=O)c2cnc(Nc3ccc(N4CCN(C)CC4)cc3)nc2n1-c1cccc(C(C)(C)O)n1 [AZD1775] (first compound max 1 µM, partner max 1 µM)	combination Emax	0.376
CCc1c2c(nc3ccc(O)cc13)-c1cc3c(c(=O)n1C2)COC(=O)[C@]3(O)CC [SN-38] + O=C(c1cc(Cc2n[nH]c(=O)c3ccccc23)ccc1F)N1CCN(C(=O)C2CC2)CC1 [Olaparib] (first compound max 0.3 µM, 7x7, partner max 10 µM)	combination Emax	0.504
CC1(C)CCC(CN2CCN(c3ccc(C(=O)NS(=O)(=O)c4ccc(NCC5CCOCC5)c([N+](=O)[O-])c4)c(Oc4cnc5[nH]ccc5c4)c3)CC2)=C(c2ccc(Cl)cc2)C1 [Venetoclax] + C1CN(CCC1(C(=O)N[C@@H](CCO)C2=CC=C(C=C2)Cl)N)C3=NC=NC4=C3C=CN4 [Capivasertib] (first compound max 1 µM, 7x7, partner max 3 µM)	combination Emax	0.238
COc1cc2ncnc(Nc3ccc(F)c(Cl)c3)c2cc1OCCCN1CCOCC1 [Gefitinib] + CC(C)n1c(=O)n(C)c2cnc3cc(F)c(-c4ccc(OCCCN5CCCCC5)nc4)cc3c21 [AZD1390] (first compound max 10 µM, 7x7, partner max 0.3 µM)	combination Emax	0.24
C[C@@H](Nc1cc(F)cc(F)c1)c1cc(C(=O)N(C)C)cc2c(=O)cc(N3CCOCC3)oc12 [AZD8186] + CC(=O)c1c(C)c2cnc(Nc3ccc(N4CCNCC4)cn3)nc2n(C2CCCC2)c1=O [Palbociclib] (first compound max 10 µM, 7x7, partner max 10 µM)	combination Emax	0.389

Answer with the recorded combination Emax of CN(CCO)CC[C@H](CSc1ccccc1)Nc1ccc(S(=O)(=O)NC(=O)c2ccc(N3CCC([C@@H](O)c4ccccc4-c4ccc(Cl)cc4)CC3)cc2)cc1S(=O)(=O)C(F)(F)F [AZD4320] + C=CCn1c(=O)c2cnc(Nc3ccc(N4CCN(C)CC4)cc3)nc2n1-c1cccc(C(C)(C)O)n1 [AZD1775] (first compound max 1 µM, partner max 1 µM) only. 0.14

meta.source: the supplement of paper PMC11061612
